target: SOS1:KRAS (G12C) interaction (Homo sapiens (Human)); assay: SOS1-KRas(G12C) FRET Assay; conditions: 0.5 nM His10-SOS1 (res. 564-1049), 2.5 nM GST-KRAS (res. 1-169, G12C); read-out: SOS-KRas(G12C) FRET IC50
Sequence (Q07889 564-1049, stated change not applied): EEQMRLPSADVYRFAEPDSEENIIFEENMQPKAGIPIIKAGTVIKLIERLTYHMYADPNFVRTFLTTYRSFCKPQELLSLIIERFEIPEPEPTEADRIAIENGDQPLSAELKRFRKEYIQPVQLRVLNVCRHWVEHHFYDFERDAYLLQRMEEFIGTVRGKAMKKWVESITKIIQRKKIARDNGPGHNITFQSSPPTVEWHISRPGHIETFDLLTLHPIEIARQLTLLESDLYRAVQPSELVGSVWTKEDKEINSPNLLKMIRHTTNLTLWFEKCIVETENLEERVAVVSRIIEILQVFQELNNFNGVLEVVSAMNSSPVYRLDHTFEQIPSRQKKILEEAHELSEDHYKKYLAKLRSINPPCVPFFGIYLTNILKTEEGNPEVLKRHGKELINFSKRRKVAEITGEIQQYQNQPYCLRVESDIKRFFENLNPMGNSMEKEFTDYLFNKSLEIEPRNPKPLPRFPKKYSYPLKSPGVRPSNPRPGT
# reported IC50; entries follow
Give just the numeric value; nM need not be written.

Example results:
C[C@@H](Nc1nn(C)c(=O)c2cc(=O)n([C@@H]3C[C@H]3C(F)(F)F)cc12)c1cccc(C(F)F)c1F (single isomer, unassigned): 434
C[C@@H](Nc1nn(C)c(=O)c2cc(=O)n([C@@H]3CCOC[C@H]3F)cc12)c1cccc(C(F)F)c1F (single isomer, unassigned): 146

Now for a further compound.
Which IC50 value belongs to C[C@@H](Nc1nn(C)c(=O)c2cc(=O)n(C3(CO)CC3)cc12)c1cccc(C(F)F)c1F ?
366
